Tested on: Vero E6
Protocol Details: cell viability relative to DMSO; higher = less toxic
Condition Description: 72 h; 10 nM
Provide the reported cell viability of each item.
Numbers only, in %.

CCC(=O)N1CCOc2c(cc(-c3ccc(OC)c(OC)c3)cc2OC[C@H]2CCCN(C)C2)C1 ... 102
C[C@@H](Oc1cc(-n2cnc3ccc(CN4CCN(C)CC4)cc32)sc1C(N)=O)c1ccccc1C(F)(F)F ... 104
C[C@H]1[C@H](NC(=O)/C(=N\OC(C)(C)C(=O)O)c2csc(N)n2)C(=O)N1S(=O)(=O)O ... 95.2
CC(C)(C)c1cc(C(C)(C)C)c2c(c1)C(O)(C(F)(F)F)C(=O)O2 (racemic) ... 103

Okay, here is my list. What is cell viability for each of these?
1. CNC(=O)[C@H](Cc1c[nH]c2ccccc12)NC(=O)[C@@H](CC(=O)NO)CC(C)C
2. Cc1noc(NS(=O)(=O)c2ccc(N)cc2)c1C
3. CN1C(=O)c2c(nn(Cc3ccc(-c4cccc(F)n4)cc3)c2Nc2ccccc2)N2C1=N[C@@H]1CCC[C@@H]12
4. C=CC(=O)Nc1cccc(Nc2nc(Nc3ccc(OCCOC)cc3)ncc2F)c1

result:
1: 97; 2: 96.6; 3: 113; 4: 94.5

Quick one: give me cell viability for each item below, same order please.
1. N#Cc1ccc2[nH]c(O)c(-c3ccc(CN4CCOCC4)cn3)c2c1
2. O[C@@H]1CCCC[C@H]1N1CCC(c2ccccc2)CC1 (racemic)
3. C[C@H](NCc1ccc(OCc2cccc(F)c2)cc1)C(N)=O [safinamide]
4. CN1[C@@H]2CC[C@H]1C[C@@H](OC(=O)N1Cc3ccccc3NC1=O)C2
5. CC(C)[C@H](CO)Nc1nc(Nc2cc(N)cc(Cl)c2)c2ncn(C(C)C)c2n1
6. CC(=O)[C@H]1CC[C@H]2[C@@H]3CC[C@H]4C[C@H](O)CC[C@]4(C)[C@H]3C(=O)C[C@]12C
7. CN1[C@@H]2CC[C@H]1C[C@@H](OC(=O)c1cc(Cl)cc(Cl)c1)C2

result:
97.6
95.6
89.8
94.6
102
95.9
103

List the reported cell viability of each compound below.
1. CCCN(CCC)[C@H]1CCc2ccc(O)cc2C1 [7-hydroxy-DPAT]
2. Clc1ccc(CO/N=C(\Cn2ccnc2)c2ccc(Cl)cc2Cl)c(Cl)c1
3. CC(C)(C)C(=O)OCOP(=O)(COCCn1cnc2c(N)ncnc21)OCOC(=O)C(C)(C)C
4. Cc1cc(-c2nc3cc(F)ccc3s2)ccc1NC(=O)[C@@H](N)CCCCN

result:
105
105
106
95.8

// each listed compound needs a value for cell viability
1. c1ccc2c(Cc3c[nH]c4ccccc34)c[nH]c2c1
2. CCOC(=O)n1ccn(C)c1=S
3. O=C(O)P(=O)(O)O
4. COCC1(CO)C(=O)C2CCN1CC2 (stereo unspecified)
5. COc1ccc(OC)c([C@@H](O)CNC(=O)CN)c1
6. CC1CCN(CCCC(=O)c2ccc(F)cc2)CC1
7. O=C1C=CC[C@@H]2[C@H]3CCCN4CCC[C@@H](CN12)[C@@H]34
8. CC1=C(C(=O)O)N2C(=O)[C@@H](NC(=O)[C@H](N)C3=CCC=CC3)[C@H]2SC1

result:
[102, 89.5, 104, 99.3, 97.8, 98, 113, 97]
